Tested on: 22RV1
Assay: Cell viability assay (CellTiter-Glo, 5 days)
Format: cell-based
Settings: Homo sapiens; 22RV1, dose-response curve, Figure 3A
ATTRIBUTE MEASURED: IC50 (µM)
Numbers only, in µM.

Query string: Returns the measured IC50 for the input compound. Input: O=C1CCC(N2C(=O)c3cccc(OCC(=O)N4CCN(c5ccc(N(C(=O)NCc6ccccc6)C6CCC(Nc7ncc8ccccc8n7)CC6)cc5)CC4)c3C2=O)C(=O)N1 (stereo not shown)
Result string: 0.144

---

Assay: Pharmacokinetic profile in CD-1 mice
Type: in vivo
Conditions: plasma, po; CD-1 mouse, p.o. 10 mg/kg
ATTRIBUTE MEASURED: Tmax (min)
Answers are plain numbers, in min.

Query string: Returns the measured Tmax for the input compound. Input: O=C1CCC(N2C(=O)c3cccc(OCC(=O)N4CCN(c5ccc(N(C(=O)NCc6ccccc6)C6CCC(Nc7ncc8ccccc8n7)CC6)cc5)CC4)c3C2=O)C(=O)N1 (stereo not shown)
Result string: 15
